- tested.target: Serine/threonine-protein kinase SIK2 (Homo sapiens, UniProt Q9H0K1)
- Sequence (Q9H0K1 whole entry): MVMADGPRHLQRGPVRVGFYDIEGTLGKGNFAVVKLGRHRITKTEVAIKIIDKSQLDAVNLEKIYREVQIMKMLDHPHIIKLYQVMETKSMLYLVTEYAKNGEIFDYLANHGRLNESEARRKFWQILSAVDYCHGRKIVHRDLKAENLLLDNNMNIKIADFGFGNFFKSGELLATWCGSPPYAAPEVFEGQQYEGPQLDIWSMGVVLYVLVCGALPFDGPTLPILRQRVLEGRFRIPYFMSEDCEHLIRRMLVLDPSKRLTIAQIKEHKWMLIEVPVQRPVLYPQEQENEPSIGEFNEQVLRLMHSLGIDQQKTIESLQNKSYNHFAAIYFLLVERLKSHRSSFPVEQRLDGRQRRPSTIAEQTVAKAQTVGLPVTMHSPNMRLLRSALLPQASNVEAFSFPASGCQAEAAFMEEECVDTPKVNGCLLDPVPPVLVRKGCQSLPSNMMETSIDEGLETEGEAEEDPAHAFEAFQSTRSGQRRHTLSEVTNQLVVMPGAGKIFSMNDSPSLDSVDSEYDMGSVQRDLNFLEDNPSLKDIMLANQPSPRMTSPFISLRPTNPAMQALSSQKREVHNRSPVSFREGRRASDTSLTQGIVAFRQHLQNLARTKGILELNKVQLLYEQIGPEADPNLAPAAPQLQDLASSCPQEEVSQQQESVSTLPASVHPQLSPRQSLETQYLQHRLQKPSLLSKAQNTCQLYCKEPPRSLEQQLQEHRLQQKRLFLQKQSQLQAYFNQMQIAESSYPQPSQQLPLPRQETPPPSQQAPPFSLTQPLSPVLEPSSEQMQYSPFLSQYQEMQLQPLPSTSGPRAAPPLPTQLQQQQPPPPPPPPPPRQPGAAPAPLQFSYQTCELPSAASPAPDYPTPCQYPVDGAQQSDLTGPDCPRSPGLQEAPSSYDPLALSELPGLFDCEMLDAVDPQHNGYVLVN
- measurement.protocol: Inhibition of SIK2 (unknown origin)
endpoint.name: pIC50
When answering, recall that pIC50 equals minus log10 of the concentration in mol/L, and write that number alone.

Req: Query pIC50 on Serine/threonine-protein kinase SIK2 (Homo sapiens, UniProt Q9H0K1) for Cc1cccc(F)c1NC(=O)c1cnc(Nc2ccc(N3CCN(C)CC3)c(F)c2)nc1NC1CCC1
Resp: 8.10

====

- measurement.protocol: Metabolic stability in human liver microsomes assessed as half life
- Assay type: ADME, Microsome
endpoint.name: half-life (min)
# output: bare number, implied unit min

Record excerpt, results attached:
CNc1nc(Nc2ccc(N3CCN(C)CC3)cc2)ncc1C(=O)Nc1c(C)cccc1C = 17.5
COc1ccc(N(C(=O)Nc2c(C)cccc2C)c2cc(Nc3ccc(N4CCN(C)CC4)cc3)ncn2)c(OC)c1 = 14.4
COc1cc(N2CCN(C)CC2)ccc1Nc1ncc(C(=O)Nc2c(C)cccc2C)c(NC2CCC2)n1 = 44.1
CN1CCN(c2ccc(Nc3ncc(C(=O)Nc4ccccc4F)c(NC4CCC4)n3)cc2)CC1 = 45.6
COc1cc(Nc2ncc(C(=O)Nc3c(C)cccc3C)c(NC3CC3)n2)ccc1N1CCN(C)CC1 = 52.1
Cc1cccc(Br)c1NC(=O)c1cnc(Nc2ccc(N3CCN(C)CC3)cc2)nc1NC1CCC1 = 21.5
Cc1cccc(C)c1NC(=O)c1cnc(Nc2ccc(N3CCNCC3)cc2)nc1NC1CCC1 = 33

# ---- query molecule ----
Req: Endpoint output: half-life of Cc1cccc(C)c1NC(=O)c1cnc(Nc2ccc(N3CCN(C)CC3)cc2)nc1NC1CCCCC1 . Value?
Resp: 37.3

====

- tested.target: Serine/threonine-protein kinase SIK1 (Homo sapiens, UniProt P57059)
- Sequence (P57059 whole entry): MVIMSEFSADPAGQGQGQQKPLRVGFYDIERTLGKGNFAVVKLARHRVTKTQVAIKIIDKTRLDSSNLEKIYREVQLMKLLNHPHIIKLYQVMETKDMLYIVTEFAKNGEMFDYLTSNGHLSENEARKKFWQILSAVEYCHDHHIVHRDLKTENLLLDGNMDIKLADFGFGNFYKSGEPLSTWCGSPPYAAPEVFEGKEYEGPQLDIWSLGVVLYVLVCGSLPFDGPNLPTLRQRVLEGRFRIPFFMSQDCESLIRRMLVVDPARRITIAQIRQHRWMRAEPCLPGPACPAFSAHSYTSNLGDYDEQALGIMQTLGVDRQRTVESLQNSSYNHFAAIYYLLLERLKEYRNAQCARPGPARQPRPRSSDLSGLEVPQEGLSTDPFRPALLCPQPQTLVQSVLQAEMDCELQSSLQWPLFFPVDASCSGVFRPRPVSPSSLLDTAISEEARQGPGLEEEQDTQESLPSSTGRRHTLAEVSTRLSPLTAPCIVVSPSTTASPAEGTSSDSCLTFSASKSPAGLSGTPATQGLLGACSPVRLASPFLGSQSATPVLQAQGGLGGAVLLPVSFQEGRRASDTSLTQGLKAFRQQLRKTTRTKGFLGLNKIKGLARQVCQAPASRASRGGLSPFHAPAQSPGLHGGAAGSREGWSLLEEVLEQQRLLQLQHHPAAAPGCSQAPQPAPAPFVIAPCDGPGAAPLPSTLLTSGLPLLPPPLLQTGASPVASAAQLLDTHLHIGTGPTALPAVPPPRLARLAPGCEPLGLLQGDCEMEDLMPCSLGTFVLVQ
endpoint.name: pIC50
When answering, recall that pIC50 equals minus log10 of the concentration in mol/L, and write that number alone.

Req: Query pIC50 on Serine/threonine-protein kinase SIK1 (Homo sapiens, UniProt P57059) for Cc1cccc(F)c1NC(=O)c1cnc(Nc2ccc(N3CCN(C)CC3)c(F)c2)nc1NC1CC1
Resp: 7.80

====

- measurement.protocol: Half life in Sprague-Dawley rat at 5 mg/kg, iv measured upto 24 hrs by LC/MS/MS analysis
- Assay type: ADME, organism-based
- condition.set: in vivo
Entries and their half-life
Just the number plus its unit, please.

Cc1cccc(F)c1NC(=O)c1cnc(Nc2ccc(N3CCN(C)CC3)c(F)c2)nc1NC1CC1 = 6.1 h
COc1ccc(N(C(=O)Nc2c(C)cccc2C)c2cc(Nc3ccc(N4CCN(C)CC4)cc3)ncn2)c(OC)c1 = 3.5 h

Req: Endpoint output: half-life of Cc1cccc(F)c1NC(=O)c1cnc(Nc2ccc(N3CCN(C)CC3)c(F)c2)nc1NC1CCC1 . Value?
Resp: 11.5 h

====

- measurement.protocol: Cmax in Sprague-Dawley rat at 5 mg/kg, po measured upto 24 hrs by LC/MS/MS analysis
- Assay type: ADME, organism-based
- Set-up: time < 24 hrs, dose 5 mg/kg, route po
- condition.set: in vivo
endpoint.name: Cmax (ng/mL)
# output: bare number, implied unit ng/mL

Req: Endpoint output: Cmax of COc1ccc(N(C(=O)Nc2c(C)cccc2C)c2cc(Nc3ccc(N4CCN(C)CC4)cc3)ncn2)c(OC)c1 . Value?
Resp: 149

Req: Endpoint output: Cmax of Cc1cccc(F)c1NC(=O)c1cnc(Nc2ccc(N3CCN(C)CC3)c(F)c2)nc1NC1CC1 . Value?
Resp: 52.2
